Biological target: Protein cereblon/Signal transducer and activator of transcription 3 (Homo sapiens, UniProt P40763+Q96SW2)
Sequence (Q96SW2 whole entry, one chain of several): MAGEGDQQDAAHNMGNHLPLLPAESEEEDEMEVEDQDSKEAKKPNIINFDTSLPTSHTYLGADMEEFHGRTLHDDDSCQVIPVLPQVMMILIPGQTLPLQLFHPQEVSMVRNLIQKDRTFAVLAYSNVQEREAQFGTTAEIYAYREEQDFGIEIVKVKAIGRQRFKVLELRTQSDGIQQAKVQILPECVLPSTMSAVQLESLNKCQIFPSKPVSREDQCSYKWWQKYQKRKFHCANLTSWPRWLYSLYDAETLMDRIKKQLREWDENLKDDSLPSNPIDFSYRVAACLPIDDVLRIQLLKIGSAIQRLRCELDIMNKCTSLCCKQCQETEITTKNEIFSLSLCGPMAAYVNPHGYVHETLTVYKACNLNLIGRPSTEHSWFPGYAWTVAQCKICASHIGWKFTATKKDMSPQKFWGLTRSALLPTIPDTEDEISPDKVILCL
Assay: Protac activity at CRBN/STAT3 in human MOLM16 cells assessed as degradation of STAT3 incubated for 4 hrs by Western blot analysis
Type: cell-based
Catalogue of DC50 values
Measurement name: DC50 (nM)

1. NC(=O)CC[C@H](NC(=O)[C@@H]1CC[C@@H]2CCN(C(=O)CCCCC#Cc3cccc4c3CN(C3CCC(=O)NC3=O)C4=O)C[C@H](NC(=O)c3cc4cc(C(F)(F)P(=O)(O)O)ccc4[nH]3)C(=O)N21)C(=O)NC(c1ccccc1)c1ccccc1 (some centres undefined) | 260
2. NC(=O)CC[C@H](NC(=O)[C@@H]1CC[C@@H]2CCN(C(=O)CCCCCCNc3cccc4c3CN(C3CCC(=O)NC3=O)C4=O)C[C@H](NC(=O)c3cc4cc(C(F)(F)P(=O)(O)O)ccc4[nH]3)C(=O)N21)C(=O)NC(c1ccccc1)c1ccccc1 (some centres undefined) | 90
3. NC(=O)CC[C@H](NC(=O)[C@@H]1CC[C@@H]2CCN(C(=O)CCCCCCC#Cc3cccc4c3CN(C3CCC(=O)NC3=O)C4=O)C[C@H](NC(=O)c3cc4cc(C(F)(F)P(=O)(O)O)ccc4[nH]3)C(=O)N21)C(=O)NC(c1ccccc1)c1ccccc1 (some centres undefined) | 90

----------
Test: Antiproliferative activity against human MOLM16 cells assessed as reduction in cell viability incubated for 4 days by cell-titer glo luminescent assay
Assay type: functional, cell-based
Conditions: MOLM16, 96 h
pIC50: −log10 of the molar value.
# binarize pIC50: threshold 7 inclusive, high side 1, low side -1

1. NC(=O)CC[C@H](NC(=O)[C@@H]1CC[C@@H]2CCN(C(=O)CCCCCC#Cc3cccc4c3C(=O)N(C3CCC(=O)NC3=O)C4=O)C[C@H](NC(=O)c3cc4cc(C(F)(F)P(=O)(O)O)ccc4[nH]3)C(=O)N21)C(=O)NC(c1ccccc1)c1ccccc1 (stereo partly specified) | -1
2. C/C(=C\C(=O)N[C@H]1CN(C(=O)CCCCCC#Cc2cccc3c2CN(C2CCC(=O)NC2=O)C3=O)CC[C@H]2CC[C@@H](C(=O)N[C@@H](CCC(N)=O)C(=O)NC(c3ccccc3)c3ccccc3)N2C1=O)c1ccc(C(F)(F)P(=O)(O)O)cc1 (stereo partly specified) | -1
3. CNC(=O)[C@H](CCC(N)=O)NC(=O)[C@@H]1CC[C@@H]2CCN(C(=O)CCCCCC#Cc3cccc4c3CN(C3CCC(=O)NC3=O)C4=O)C[C@H](NC(=O)c3cc4cc(C(F)(F)P(=O)(O)O)ccc4[nH]3)C(=O)N21 (stereo partly specified) | -1
4. NC(=O)CC[C@H](NC(=O)[C@@H]1CC[C@@H]2CCN(C(=O)CCCCCCNc3cccc4c3CN(C3CCC(=O)NC3=O)C4=O)C[C@H](NC(=O)c3cc4cc(C(F)(F)P(=O)(O)O)ccc4[nH]3)C(=O)N21)C(=O)NC(c1ccccc1)c1ccccc1 (stereo partly specified) | 1
5. CN1C(=O)CCC(N2Cc3c(C#CCCCCCC(=O)N4CC[C@H]5CC[C@@H](C(=O)N[C@@H](CCC(N)=O)C(=O)NC(c6ccccc6)c6ccccc6)N5C(=O)[C@@H](NC(=O)c5cc6cc(C(F)(F)P(=O)(O)O)ccc6[nH]5)C4)cccc3C2=O)C1=O (stereo partly specified) | -1
6. NC(=O)CC[C@H](NC(=O)[C@@H]1CC[C@@H]2CCN(C(=O)c3cnn(CCCC#Cc4cccc5c4CN(C4CCC(=O)NC4=O)C5=O)c3)C[C@H](NC(=O)c3cc4cc(C(F)(F)P(=O)(O)O)ccc4[nH]3)C(=O)N21)C(=O)NC(c1ccccc1)c1ccccc1 (stereo partly specified) | -1
7. NC(=O)CC[C@H](NC(=O)[C@@H]1CC[C@@H]2CCN(C(=O)CCCCCCCCC#Cc3cccc4c3CN(C3CCC(=O)NC3=O)C4=O)C[C@H](NC(=O)c3cc4cc(C(F)(F)P(=O)(O)O)ccc4[nH]3)C(=O)N21)C(=O)NC(c1ccccc1)c1ccccc1 (stereo partly specified) | 1
8. CC(=O)N1CC[C@H]2CC[C@@H](C(=O)N[C@@H](CCC(N)=O)C(=O)NC(c3ccccc3)c3ccccc3)N2C(=O)[C@@H](NC(=O)c2cc3cc(C(F)(F)P(=O)(O)O)ccc3[nH]2)C1 | -1
9. NC(=O)CC[C@H](NC(=O)[C@@H]1CC[C@@H]2CCN(C(=O)CCN3CCC(C#Cc4cccc5c4CN(C4CCC(=O)NC4=O)C5=O)CC3)C[C@H](NC(=O)c3cc4cc(C(F)(F)P(=O)(O)O)ccc4[nH]3)C(=O)N21)C(=O)NC(c1ccccc1)c1ccccc1 (stereo partly specified) | -1
10. NC(=O)CC[C@H](NC(=O)[C@@H]1CC[C@@H]2CCN(C(=O)CCCn3cc(C#Cc4cccc5c4CN(C4CCC(=O)NC4=O)C5=O)cn3)C[C@H](NC(=O)c3cc4cc(C(F)(F)P(=O)(O)O)ccc4[nH]3)C(=O)N21)C(=O)NC(c1ccccc1)c1ccccc1 (stereo partly specified) | -1
11. NC(=O)CC[C@H](NC(=O)[C@@H]1CC[C@@H]2CCN(C(=O)CCCCCC#Cc3cccc4c3CN(C3CCC(=O)NC3=O)C4=O)C[C@H](NC(=O)c3cc4cc(OP(=O)(O)O)ccc4[nH]3)C(=O)N21)C(=O)NC(c1ccccc1)c1ccccc1 (stereo partly specified) | -1
12. NC(=O)CC[C@H](NC(=O)[C@@H]1CC[C@@H]2CCN(C(=O)CCCCCC#Cc3ccc4c(c3)C(=O)N(C3CCC(=O)NC3=O)C4)C[C@H](NC(=O)c3cc4cc(C(F)(F)P(=O)(O)O)ccc4[nH]3)C(=O)N21)C(=O)NC(c1ccccc1)c1ccccc1 (stereo partly specified) | -1

----------
Molecular target: Protein cereblon/Signal transducer and activator of transcription 3 (Homo sapiens, UniProt P40763+Q96SW2)
Experiment: Protac activity at CRBN/STAT3 in human SUDHL1 cells assessed as degradation of STAT3 incubated for 16 hrs by Western blot analysis
Type: cell-based
Measurement name: DC50 (nM)

1) NC(=O)CC[C@H](NC(=O)[C@@H]1CC[C@@H]2CCN(C(=O)NCCCCC#Cc3cccc4c3CN(C3CCC(=O)NC3=O)C4=O)C[C@H](NC(=O)c3cc4cc(C(F)(F)P(=O)(O)O)ccc4[nH]3)C(=O)N21)C(=O)NC(c1ccccc1)c1ccccc1 (some centres not stated) | 11

----------
Target: Protein cereblon/Signal transducer and activator of transcription 3 (Homo sapiens, UniProt P40763+Q96SW2)
Test: Protac activity at CRBN/STAT3 in human SUDHL1 cells assessed as degradation of STAT3 incubated for 16 hrs by Western blot analysis
Type: cell-based
Measurement name: DC50 (nM)

1. CNC(=O)[C@H](CCC(N)=O)NC(=O)[C@@H]1CC[C@@H]2CCN(C(=O)CCCCCC#Cc3cccc4c3CN(C3CCC(=O)NC3=O)C4=O)C[C@H](NC(=O)c3cc4cc(C(F)(F)P(=O)(O)O)ccc4[nH]3)C(=O)N21 (some centres undefined) | 890
2. NC(=O)CC[C@H](NC(=O)[C@@H]1CC[C@@H]2CCN(C(=O)OCCCCC#Cc3cccc4c3CN(C3CCC(=O)NC3=O)C4=O)C[C@H](NC(=O)c3cc4cc(C(F)(F)P(=O)(O)O)ccc4[nH]3)C(=O)N21)C(=O)NC(c1ccccc1)c1ccccc1 (some centres undefined) | 49
3. NC(=O)CC[C@H](NC(=O)[C@@H]1CC[C@@H]2CCN(CCCCCCC#Cc3cccc4c3CN(C3CCC(=O)NC3=O)C4=O)C[C@H](NC(=O)c3cc4cc(C(F)(F)P(=O)(O)O)ccc4[nH]3)C(=O)N21)C(=O)NC(c1ccccc1)c1ccccc1 (some centres undefined) | 919

----------
Target: Signal transducer and activator of transcription 3 (Homo sapiens)
Sequence (P40763 whole entry): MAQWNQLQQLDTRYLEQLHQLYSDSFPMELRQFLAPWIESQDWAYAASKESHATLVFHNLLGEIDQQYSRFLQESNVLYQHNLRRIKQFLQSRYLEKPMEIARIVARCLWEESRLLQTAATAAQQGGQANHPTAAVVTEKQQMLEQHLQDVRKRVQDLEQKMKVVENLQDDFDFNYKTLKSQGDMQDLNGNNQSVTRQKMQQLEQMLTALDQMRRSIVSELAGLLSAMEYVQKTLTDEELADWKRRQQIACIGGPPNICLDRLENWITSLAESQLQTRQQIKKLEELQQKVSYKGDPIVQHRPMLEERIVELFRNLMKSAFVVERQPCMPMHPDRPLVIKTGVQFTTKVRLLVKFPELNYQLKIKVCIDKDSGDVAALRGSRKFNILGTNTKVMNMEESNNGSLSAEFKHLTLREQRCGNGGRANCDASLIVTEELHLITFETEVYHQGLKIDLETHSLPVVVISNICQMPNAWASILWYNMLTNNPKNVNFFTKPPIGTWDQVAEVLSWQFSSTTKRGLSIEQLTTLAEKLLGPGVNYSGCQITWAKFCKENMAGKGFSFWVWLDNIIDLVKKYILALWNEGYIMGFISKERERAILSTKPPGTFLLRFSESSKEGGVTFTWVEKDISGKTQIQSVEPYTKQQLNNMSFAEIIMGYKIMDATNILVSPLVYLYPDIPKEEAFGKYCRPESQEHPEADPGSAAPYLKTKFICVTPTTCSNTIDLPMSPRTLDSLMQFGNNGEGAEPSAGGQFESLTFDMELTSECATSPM
Assay: Binding affinity to STAT3 (unknown origin)
pKi: −log10 of the molar value.
Measurement name: pKi

1) NC(=O)CC[C@H](NC(=O)[C@@H]1CC[C@@H]2CCCC[C@H](NC(=O)c3cc4cc(CP(=O)(O)O)ccc4[nH]3)C(=O)N21)C(=O)NCc1ccccc1 | 6.12

----------
Molecular target: Protein cereblon/Signal transducer and activator of transcription 3 (Homo sapiens, UniProt P40763+Q96SW2)
Test: Protac activity at CRBN/STAT3 in human MOLM16 cells assessed as degradation of STAT3 incubated for 4 hrs by Western blot analysis
Format: cell-based
Hi! Could you tag entries with DC50 below 200 nM as Satisfied, and those at or above as Not satisfied? Much appreciated.

1) CC(=O)N1CC[C@H]2CC[C@@H](C(=O)N[C@@H](CCC(N)=O)C(=O)NC(c3ccccc3)c3ccccc3)N2C(=O)[C@@H](NC(=O)c2cc3cc(C(F)(F)P(=O)(O)O)ccc3[nH]2)C1 | Not satisfied
2) NC(=O)CC[C@H](NC(=O)[C@@H]1CC[C@@H]2CCN(C(=O)CCCn3cc(C#Cc4cccc5c4CN(C4CCC(=O)NC4=O)C5=O)cn3)C[C@H](NC(=O)c3cc4cc(C(F)(F)P(=O)(O)O)ccc4[nH]3)C(=O)N21)C(=O)NC(c1ccccc1)c1ccccc1 (stereo partly drawn) | Not satisfied
3) NC(=O)CC[C@H](NC(=O)[C@@H]1CC[C@@H]2CCN(C(=O)CCCCCCCc3cccc4c3CN(C3CCC(=O)NC3=O)C4=O)C[C@H](NC(=O)c3cc4cc(C(F)(F)P(=O)(O)O)ccc4[nH]3)C(=O)N21)C(=O)NC(c1ccccc1)c1ccccc1 (stereo partly drawn) | Satisfied
4) NC(=O)CC[C@H](NC(=O)[C@@H]1CC[C@@H]2CCN(C(=O)OCCCCC#Cc3cccc4c3CN(C3CCC(=O)NC3=O)C4=O)C[C@H](NC(=O)c3cc4cc(C(F)(F)P(=O)(O)O)ccc4[nH]3)C(=O)N21)C(=O)NC(c1ccccc1)c1ccccc1 (stereo partly drawn) | Not satisfied
5) NC(=O)CC[C@H](NC(=O)[C@@H]1CC[C@@H]2CCN(C(=O)CCCC#Cc3cccc4c3CN(C3CCC(=O)NC3=O)C4=O)C[C@H](NC(=O)c3cc4cc(C(F)(F)P(=O)(O)O)ccc4[nH]3)C(=O)N21)C(=O)NC(c1ccccc1)c1ccccc1 (stereo partly drawn) | Not satisfied
6) NC(=O)CC[C@H](NC(=O)[C@@H]1CC[C@@H]2CCN(C(=O)CCCCCCCCC#Cc3cccc4c3CN(C3CCC(=O)NC3=O)C4=O)C[C@H](NC(=O)c3cc4cc(C(F)(F)P(=O)(O)O)ccc4[nH]3)C(=O)N21)C(=O)NC(c1ccccc1)c1ccccc1 (stereo partly drawn) | Satisfied
7) CN1C(=O)CCC(N2Cc3c(C#CCCCCCC(=O)N4CC[C@H]5CC[C@@H](C(=O)N[C@@H](CCC(N)=O)C(=O)NC(c6ccccc6)c6ccccc6)N5C(=O)[C@@H](NC(=O)c5cc6cc(C(F)(F)P(=O)(O)O)ccc6[nH]5)C4)cccc3C2=O)C1=O (stereo partly drawn) | Not satisfied
8) NC(=O)CC[C@H](NC(=O)[C@@H]1CC[C@@H]2CCN(C(=O)c3cnn(CCCC#Cc4cccc5c4CN(C4CCC(=O)NC4=O)C5=O)c3)C[C@H](NC(=O)c3cc4cc(C(F)(F)P(=O)(O)O)ccc4[nH]3)C(=O)N21)C(=O)NC(c1ccccc1)c1ccccc1 (stereo partly drawn) | Satisfied
